Test Target: Adrenergic receptor alpha-1 (Rattus norvegicus) (UniProt P15823+P23944+P43140)
Assay Method Text: post-synaptic antagonist activity towards alpha-1 adrenergic receptor was determined. Concentration giving a dose response to phenylephrine (idazoxan=1) was reported.
Type: functional
Each entry below carries its reported Postsynaptic antagonist.
Answer with a number only.

Guide cases for Postsynaptic antagonist, answers given:
Just so you know, measured Postsynaptic antagonist for CCCCC1(C2=NCCN2)COc2ccccc2O1 (stereo not drawn) came out at 2.2

For record CCCCCCCC1(C2=NCCN2)COc2ccccc2O1 (stereo not drawn) the listed Postsynaptic antagonist is 1.1

// field: Postsynaptic antagonist; key: Cc1cccc(OC2(C3=NCCN3)COc3ccccc3O2)c1 (stereo not drawn) ; value = 0.2

Recorded Postsynaptic antagonist (compound OCCOC1(C2=NCCN2)COc2ccccc2O1 (stereo not drawn) ): 1

Postsynaptic antagonist for COc1cc2c(cc1OC)OC(OC)(C1=NCCN1)CO2 (stereo not drawn) is 0.05

C=CCOC1(C2=NCCN2)COc2ccccc2O1 (stereo not drawn) yielded Postsynaptic antagonist of 6

New cases:
Documented Postsynaptic antagonist of COCCOC1(C2=NCCN2)COc2ccccc2O1 (stereo not drawn) : 1

Reported Postsynaptic antagonist ( c1ccc(CCOC2(C3=NCCN3)COc3ccccc3O2)cc1 (stereo not drawn) ) = 8.8

The compound c1ccc(COC2(C3=NCCN3)COc3ccccc3O2)cc1 (stereo not drawn) showed Postsynaptic antagonist equal to 3

Postsynaptic antagonist reported for this compound CCCCCOC1(C2=NCCN2)COc2ccccc2O1 (stereo not drawn) : 0.6

Reported Postsynaptic antagonist ( C=C(C)C1(C2=NCCN2)COc2ccccc2O1.Cl (stereo not drawn) ) = 0.07

Memo: CCOC1(C2=NCCN2)COc2ccccc2O1.Cl (stereo not drawn) , reported Postsynaptic antagonist: 7

Record CCCC1(C2=NCCN2)COc2ccccc2O1 (stereo not drawn) , field Postsynaptic antagonist: 3.2

* * *

In this section we review reported Postsynaptic antagonist values for a set of compounds.
Test Target: Adrenergic receptor alpha-1 (Rattus norvegicus) (UniProt P15823+P23944+P43140)
Assay Method Text: post-synaptic antagonist activity towards alpha-1 adrenergic receptor was determined. Concentration giving a dose response to phenylephrine (idazoxan=1) was reported.
Format: functional
Number only, please.

Completed entries (count: 5):
Measured Postsynaptic antagonist for this entry COc1ccc(OC2(C3=NCCN3)COc3ccccc3O2)cc1 (stereo not given) on Adrenergic receptor alpha-1 (Rattus norvegicus) (UniProt P15823+P23944+P43140): 2

Postsynaptic antagonist on Adrenergic receptor alpha-1 (Rattus norvegicus) (UniProt P15823+P23944+P43140) for Clc1ccccc1COC1(C2=NCCN2)COc2ccccc2O1 (stereo not given) is 1

Short answer on Adrenergic receptor alpha-1 (Rattus norvegicus) (UniProt P15823+P23944+P43140) for CCCCOC1(C2=NCCN2)COc2ccccc2O1 (stereo not given) , Postsynaptic antagonist: 2.2

Item COc1ccc(COC2(C3=NCCN3)COc3ccccc3O2)cc1 (stereo not given) was tested on Adrenergic receptor alpha-1 (Rattus norvegicus) (UniProt P15823+P23944+P43140); the reported Postsynaptic antagonist is 4.8

Record COC1(C2=NCCN2)COc2ccccc2O1 (stereo not given) / Adrenergic receptor alpha-1 (Rattus norvegicus) (UniProt P15823+P23944+P43140), Postsynaptic antagonist recorded as 4

Continuing:
Measured Postsynaptic antagonist (Adrenergic receptor alpha-1 (Rattus norvegicus) (UniProt P15823+P23944+P43140)), entry c1ccc2c(c1)OCC(C1=NCCN1)(C1CCCC1)O2 (stereo not given) : 0.4

Simply: CCC1(C2=NCCN2)COc2ccccc2O1 (stereo not given) , Adrenergic receptor alpha-1 (Rattus norvegicus) (UniProt P15823+P23944+P43140), Postsynaptic antagonist = 2.25

Value (Postsynaptic antagonist, Adrenergic receptor alpha-1 (Rattus norvegicus) (UniProt P15823+P23944+P43140)) for record COc1ccccc1COC1(C2=NCCN2)COc2ccccc2O1 (stereo not given) = 2.3

Postsynaptic antagonist for Adrenergic receptor alpha-1 (Rattus norvegicus) (UniProt P15823+P23944+P43140) with input C1=C(C2(C3=NCCN3)COc3ccccc3O2)CCC1 (stereo not given) equals 0.09
